Origin of measurements: patent US7462600B2

MIC H. influenzae 1218 values by entry
# System: Haemophilus influenzae 1218
# Measurement Notes: MIC, microtiter broth dilution (NCCLS M100-S14), H. influenzae 1218 (susceptible)
# Type: cell-based
# Study Conditions: Haemophilus influenzae 1218

| Molecule | Target Or System | Unit Info | MIC H. influenzae 1218 |
| --- | --- | --- | --- |
| CC[C@H]1OC(=O)[C@H](C)[C@@H](OC(=O)N2CCCC2c2cccc(F)c2)[C@H](C)[C@@H](O[C@@H]2O[C@H](C)C[C@H](N(C)C)[C@H]2O)[C@](C)(OC)C[C@@H](C)C(=O)[C@H](C)[C@H]2N(CC3CN(Cc4c[nH]c5ncccc45)C3)C(=O)O[C@]12C (some centres unmarked) [Example 5.05] | Haemophilus influenzae 1218 | µg/mL | 8 |
| CCC1OC(=O)C(C)C(=O)C(C)C(OC2OC(C)CC(N(C)C)C2O)C(C)(OC)CC(C)C(=O)C(C)C2N(C3CN(S(=O)(=O)c4ccc5ncsc5c4)C3)C(=O)OC12C (centres unmarked) | Haemophilus influenzae 1218 | µg/mL | 0.25 |
| CCC1OC(=O)C(C)C(=O)C(C)C(OC2OC(C)CC(N(C)C)C2O)C(C)(OC)CC(C)C(=O)C(C)C2N(C3CN(Cc4cccc5ncoc45)C3)C(=O)OC12C (centres unmarked) | Haemophilus influenzae 1218 | µg/mL | 0.25 |
| CCC1OC(=O)C(C)C(=O)C(C)C(OC2OC(C)CC(N(C)C)C2O)C(C)(OC)CC(C)C(=O)C(C)C2N(C3CN(Cc4n[nH]c5ccccc45)C3)C(=O)OC12C (centres unmarked) | Haemophilus influenzae 1218 | µg/mL | 0.5 |
| CCC1OC(=O)C(C)C(=O)C(C)C(OC2OC(C)CC(N(C)C)C2O)C(C)(OC)CC(C)C(=O)C(C)C2N(C3CN(Cc4c(OC)ccc5ccccc45)C3)C(=O)OC12C (centres unmarked) | Haemophilus influenzae 1218 | µg/mL | 1 |

###

MIC S. pneumo. 1175 values by entry
# Tested on: Streptococcus pneumoniae 1175
# Assay type: cell-based
# Study Conditions: S. pneumoniae 1175 (mefA); microtiter broth dilution

| Compound | Measurement Qualifier | MIC S. pneumo. 1175 (µg/mL) |
| --- | --- | --- |
| CCC1OC(=O)C(C)C(=O)C(C)C(OC2OC(C)CC(N(C)C)C2O)C(C)(OC)CC(C)C(=O)C(C)C2N(CC3CCN(C(=O)c4ccc5ncccc5c4)C3)C(=O)OC12C (centres unmarked) [13.12] | = | 0.5 |
| CCC1OC(=O)C(C)C(=O)C(C)C(OC2OC(C)CC(N(C)C)C2O)C(C)(OC)CC(C)C(=O)C(C)C2N(CC3CCCN3Cc3ccno3)C(=O)OC12C (centres unmarked) [12.04] | = | 1 |
| CCC1OC(=O)C(C)(F)C(=O)C(C)C(OC2OC(C)CC(N(C)C)C2O)C(C)(OC)CC(C)C(=O)C(C)C2N(CC3CCCN3C(=O)c3nc4ccccc4[nH]3)C(=O)OC12C (centres unmarked) | = | 0.25 |
| CCC1OC(=O)C(C)C(=O)C(C)C(OC2OC(C)CC(N(C)C)C2O)C(C)(OC)CC(C)C(=O)C(C)C2N(CC3CCCN3S(=O)(=O)c3cccc4cccnc34)C(=O)OC12C (centres unmarked) | < | 0.06 |
| CCC1OC(=O)C(C)C(=O)C(C)C(OC2OC(C)CC(N(C)C)C2O)C(C)(OC)CC(C)C(=O)C(C)C2N(CC3CCCN3C(=O)c3ccc4[nH]ncc4c3)C(=O)OC12C (centres unmarked) | = | 0.5 |
| CCC1OC(=O)C(C)C(=O)C(C)C(OC2OC(C)CC(N(C)C)C2O)C(C)(OC)CC(C)C(=O)C(C)C2N(CC3CCCN3S(=O)(=O)c3cccc4cnccc34)C(=O)OC12C (centres unmarked) | < | 0.06 |
| CCC1OC(=O)C(C)C(=O)C(C)C(OC2OC(C)CC(N(C)C)C2O)C(C)(OC)CC(C)C(=O)C(C)C2N(C3CCN(S(=O)(=O)c4cccc5cnccc45)C3)C(=O)OC12C (centres unmarked) | = | 0.12 |
| CCC1OC(=O)C(C)C(=O)C(C)C(OC2OC(C)CC(N(C)C)C2O)C(C)(OC)CC(C)C(=O)C(C)C2N(CC3CCCN3C(=O)c3cc4cccnc4[nH]3)C(=O)OC12C (centres unmarked) | < | 0.06 |
| CCC1OC(=O)C(C)C(=O)C(C)C(OC2OC(C)CC(N(C)C)C2O)C(C)(OC)CC(C)C(=O)C(C)C2N(CC3CCCN3C(=O)c3ccc4cnccc4n3)C(=O)OC12C (centres unmarked) | = | 2 |
| CCC1OC(=O)C(C)C(=O)C(C)C(OC2OC(C)CC(N(C)C)C2O)C(C)(OC)CC(C)C(=O)C(C)C2N(CC3CCCN3Cc3ccno3)C(=O)OC12C (centres unmarked) [10.01] | = | 0.5 |
| CCC1OC(=O)C(C)C(=O)C(C)C(OC2OC(C)CC(N(C)C)C2O)C(C)(OC)CC(C)C(=O)C(C)C2N(CC3CCCN3C(=O)c3cccc4cccnc34)C(=O)OC12C.O=CO (centres unmarked) | = | 4 |
| CCC1OC(=O)C(C)C(=O)C(C)C(OC2OC(C)CC(N(C)C)C2O)C(C)(OC)CC(C)C(=O)C(C)C2N(CC3CCCN3C(=O)c3cc4ccccn4n3)C(=O)OC12C (centres unmarked) | = | 0.12 |
| CC[C@H]1OC(=O)[C@H](C)C(=O)[C@H](C)[C@@H](O[C@@H]2O[C@H](C)C[C@H](N(C)C)[C@H]2O)[C@](C)(OC)C[C@@H](C)C(=O)[C@H](C)[C@H]2N(CC3(C)CN(C(=O)c4ccc5ncsc5c4)C3)C(=O)O[C@]12C.O=CO | = | 0.5 |
| CCC1OC(=O)C(C)C(=O)C(C)C(OC2OC(C)CC(N(C)C)C2O)C(C)(OC)CC(C)C(=O)C(C)C2N(CC3CCN(Cc4c[nH]c5ncccc45)C3)C(=O)OC12C (centres unmarked) [13.01] | = | 1 |
| CCC1OC(=O)C(C)C(=O)C(C)C(OC2OC(C)CC(N(C)C)C2O)C(C)(OC)CC(C)C(=O)C(C)C2N(CC3CCN(Cc4cnc5ccccc5c4)C3)C(=O)OC12C (centres unmarked) | = | 0.5 |
| CCC1OC(=O)C(C)C(=O)C(C)C(OC2OC(C)CC(N(C)C)C2O)C(C)(OC)CC(C)C(=O)C(C)C2N(CC3CCCN3C(=O)c3ccc4ncccc4c3)C(=O)OC12C (centres unmarked) [10.06] | = | 0.12 |
| CC[C@H]1OC(=O)[C@H](C)C(=O)[C@H](C)[C@@H](O[C@@H]2O[C@H](C)C[C@H](N(C)C)[C@H]2O)[C@](C)(OC)C[C@@H](C)C(=O)[C@H](C)[C@H]2N(CC3(O)CN(C(=O)c4cccc5ccncc45)C3)C(=O)O[C@]12C | = | 1 |
| CC[C@H]1OC(=O)[C@H](C)C(=O)[C@H](C)[C@@H](O[C@@H]2O[C@H](C)C[C@H](N(C)C)[C@H]2O)[C@](C)(OC)C[C@@H](C)C(=O)[C@H](C)[C@H]2N(CC3(C)CN(C(=O)c4ccc5cccnc5c4)C3)C(=O)O[C@]12C.O=CO | = | 0.12 |
| CCC1OC(=O)C(C)C(=O)C(C)C(OC2OC(C)CC(N(C)C)C2O)C(C)(OC)CC(C)C(=O)C(C)C2N(CC3CCCN3C(=O)c3cnc4ncccc4c3)C(=O)OC12C (centres unmarked) | = | 0.5 |
| CCC1OC(=O)C(C)C(=O)C(C)C(OC2OC(C)CC(N(C)C)C2O)C(C)(OC)CC(C)C(=O)C(C)C2N(CC3CCCN3C(=O)c3cccc4[nH]cnc34)C(=O)OC12C (centres unmarked) | < | 0.06 |

###

# System: Streptococcus pneumoniae 1175
# Type: cell-based
# Study Conditions: Streptococcus pneumoniae 1175; microtiter broth dilution

| Molecule | Measurement Qualifier | MIC S. pneumo. 1175 (µg/mL) |
| --- | --- | --- |
| CC[C@H]1OC(=O)[C@H](C)C(=O)[C@H](C)[C@@H](O[C@@H]2O[C@H](C)C[C@H](N(C)C)[C@H]2O)[C@](C)(OC)C[C@@H](C)C(=O)[C@H](C)[C@H]2N(CC3(C)CN(Cc4c[nH]c5ccc(F)cc45)C3)C(=O)O[C@]12C [6.08] | = | 0.25 |
| CCOc1ccc(S(=O)(=O)N2CC(N3C(=O)OC4(C)C(CC)OC(=O)C(C)(F)C(=O)C(C)C(OC5OC(C)CC(N(C)C)C5O)C(C)(OC)CC(C)C(=O)C(C)C34)C2)cc1C#N (centres unmarked) [Example 3.103] | < | 0.063 |
| CCc1noc(-c2cccc(CN3CC(N4C(=O)OC5(C)C(CC)OC(=O)C(C)C(=O)C(C)C(OC6OC(C)CC(N(C)C)C6O)C(C)(OC)CC(C)C(=O)C(C)C45)C3)c2)n1 (centres unmarked) [Example 1.44, 3-(3-ethyl-[1,2,4]oxadiazol-5-yl)benzyl] | = | 0.5 |
| CCC1OC(=O)C(C)C(=O)C(C)C(OC2OC(C)CC(N(C)C)C2O)C(C)(OC)CC(C)C(=O)C(C)C2N(C3CN(S(=O)(=O)c4ccc5c(c4)CCC5)C3)C(=O)OC12C (centres unmarked) [Example 3.83] | < | 0.06 |
| CCC1OC(=O)C(C)C(=O)C(C)C(OC2OC(C)CC(N(C)C)C2O)C(C)(OC)CC(C)C(=O)C(C)C2N(C3CN(Cc4ccc5c(c4)OCO5)C3)C(=O)OC12C (centres unmarked) [Example 1.104] | = | 0.125 |
